Target: T1, human folate receptor beta (FOLR2), extracellular domain, recombinant (human, UniProt P14207 17-228, limits assumed)
T1 construct: extracellular domain; Bought protein; also called human FOLR2
T1 sequence (P14207 17-228 limits assumed): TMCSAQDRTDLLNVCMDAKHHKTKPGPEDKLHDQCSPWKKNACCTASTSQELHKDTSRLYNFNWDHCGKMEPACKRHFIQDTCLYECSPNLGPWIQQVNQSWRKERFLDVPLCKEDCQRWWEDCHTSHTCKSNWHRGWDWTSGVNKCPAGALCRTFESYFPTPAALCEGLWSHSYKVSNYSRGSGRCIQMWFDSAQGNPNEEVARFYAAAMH
Assay: ELISA, coated recombinant protein, HA-tagged VHH in bacterial extract

binder	binding result
HA-tagged variant of VHH A1 (VHH, Used as VHH-containing bacterial (periplasmic) extract in ELISA; also called A1 HA-tag) VHH: QVQLQESGGGLVQPGGSLRLSCAASESIFSRNHMSWYRQAPGKQRELAAIITSDGNTNYPDSVKGRFTISRDNAKNTVYLQMNSLKPEDTAVYYCNTFGRSVAGFYDYWGQGTQVTVSS	no binding
HA-tagged variant of VHH A2 (VHH, Used as VHH-containing bacterial (periplasmic) extract in ELISA; also called A2 HA-tag) VHH: QVQLQESGGGLVQAGGSLRLSCAADEMKFSNYDLAWYRRAPGKQRELAAIITSGGSTNYPDSVKGRFTISRDNAKNTVYLEMNSLKPEDTAVYYCNALRPWPQFSDYWGQGTQVTVSS	no binding
HA-tagged variant of VHH A3 (VHH, Used as VHH-containing bacterial (periplasmic) extract in ELISA; also called A3 HA-tag) VHH: QVQLQESGGGLVQAGGSLRLSCGVSGNMFSMNLMGWYRQPPGKERDWVAVITKDGSTNYADSVKGRFTISRDNAKNTVSLQMNSLKPEDTAVYYCNVQDGSGWIRAWGWDWGQGTQVTVSS	no binding
